Entry source: patent US20160318856A1

Tested on: eIF2α phosphorylation (eIF2•GTP•Met-tRNAi ternary complex; HRI activation)
Test: surrogate dual luciferase eIF2α phosphorylation (ternary complex) assay
Type: cell-based, human
Conditions: 7.5 μM compound
QUANTITY: Emax (F/R)

# MOLECULE, EXPERIMENTAL_RESULT
measured = [
    ("O=C(Nc1cccc([N+](=O)[O-])c1)N[C@H]1CC[C@H](OCc2c(F)cccc2F)CC1", 0.96),
    ("Cc1ccc(NC(=O)N[C@H]2CC[C@H](OCc3c(F)cccc3F)CC2)cc1", 0.81),
    ("O=C(Nc1ccc([N+](=O)[O-])cc1)N[C@H]1CC[C@H](OCc2c(F)cccc2F)CC1", 0.87),
    ("O=C(Nc1ccccc1C(F)(F)F)N[C@H]1CC[C@H](OCc2c(F)cccc2F)CC1", 0.95),
    ("O=C(Nc1ccc(OC(F)(F)F)cc1)N[C@H]1CC[C@H](OCc2c(F)cccc2F)CC1", 0.81),
    ("O=C(Nc1cccc(C(F)(F)F)c1)N[C@H]1CC[C@H](OCc2c(F)cccc2F)CC1", 1.13),
    ("O=C(Nc1cccc(I)c1)N[C@H]1CC[C@H](OCc2c(F)cccc2F)CC1", 0.69),
    ("O=C(Nc1cccc(Cl)c1)N[C@H]1CC[C@H](OCc2c(F)cccc2F)CC1", 0.79),
    ("Cc1cccc(NC(=O)N[C@H]2CC[C@H](OCc3c(F)cccc3F)CC2)c1", 0.82),
    ("O=C(Nc1ccc(Br)cc1)N[C@H]1CC[C@H](OCc2c(F)cccc2F)CC1", 0.76),
    ("COc1cccc(NC(=O)N[C@H]2CC[C@H](OCc3c(F)cccc3F)CC2)c1", 0.84),
]
